Reference for the values: patent US20100063008A1

Each entry below lists one item and its recorded Total Active Agent Exuded from Gel value.
experiment: Exudation of active agents from gel specimens to filter paper discs, quantified by UV, MS, GC and/or HPLC after extraction; assay type: physicochemical; conditions: Gel Specimen Number 1; cumulative, Time 4 h
The reply should read as a number followed by its unit.

Example entries and their recorded answers appear below.
{"molecule": "O=c1c(O)c(-c2ccc(O)c(O)c2)oc2cc(O)cc(O)c12", "Total Active Agent Exuded from Gel": "21 µg"}
{"molecule": "CCCCCCCCCCCCCCCC(=O)OC/C=C(C)/C=C/C=C(C)/C=C/C1=C(C)CCCC1(C)C [Vit. A Palmitate, reference compound]", "Total Active Agent Exuded from Gel": "1818 µg"}
{"molecule": "O=C(O)c1ccccc1O [Salicylic Acid, reference compound]", "Total Active Agent Exuded from Gel": "1165 µg"}

IN: Give Total Active Agent Exuded from Gel for the following molecule: COC(=O)c1ccccc1O [Methyl Salicylate, reference compound]
OUT: 2699 µg

* * *

test: Exudation of active agents from gel specimens to filter paper discs, quantified by UV, MS, GC and/or HPLC after extraction; format: physicochemical; conditions: Gel Specimen Number 2; 18 h filter exposure, time 4-22 h; 37° C., 0.40 psi
measured_parameter: Active Agent Transferred from Gel to Filters
Param answer (str): number followed by unit.

Below: 3 compounds and their reported Active Agent Transferred from Gel to Filters.
{"compound": "O=c1c(O)c(-c2ccc(O)c(O)c2)oc2cc(O)cc(O)c12 [Quercetin]", "observed_value": "30 μg per filter"}
{"compound": "COC(=O)c1ccccc1O [Methyl Salicylate, reference compound]", "observed_value": "4847 μg per filter"}
{"compound": "CCCCCCCCCCCCCCCC(=O)OC/C=C(C)/C=C/C=C(C)/C=C/C1=C(C)CCCC1(C)C [Vit. A Palmitate, reference compound]", "observed_value": "1864 μg per filter"}

Here's the next entry for you.
IN: Please supply the value of reported Active Agent Transferred from Gel to Filters for the item O=C(O)c1ccccc1O [Salicylic Acid, reference compound]
OUT: 5153 μg per filter

* * *

assay: Exudation of active agents from gel specimens to filter paper discs, quantified by UV, MS, GC and/or HPLC after extraction; format: physicochemical; details: Gel Specimen Number 2; cumulative, Time 58 h
measured_parameter: Total Active Agent Exuded from Gel

A selection of reference data follows.
{"molecule": "COC(=O)c1ccccc1O [Methyl Salicylate, reference compound]", "Total Active Agent Exuded from Gel": "17106 µg"}
{"molecule": "O=C(O)c1ccccc1O [Salicylic Acid, reference compound]", "Total Active Agent Exuded from Gel": "16234 µg"}
{"molecule": "CCCCCCCCCCCCCCCC(=O)OC/C=C(C)/C=C/C=C(C)/C=C/C1=C(C)CCCC1(C)C [Vit. A Palmitate, reference compound]", "Total Active Agent Exuded from Gel": "7136 µg"}

Below: the item to evaluate.
IN: Determine its reported Total Active Agent Exuded from Gel: `O=c1c(O)c(-c2ccc(O)c(O)c2)oc2cc(O)cc(O)c12`
OUT: 94 µg

* * *

Experiment: Exudation of active agents from gel specimens to filter paper discs, quantified by UV, MS, GC and/or HPLC after extraction
Format: physicochemical
Conditions: Gel Specimen Number 2; cumulative, Time 4 h
Description: Sample filter paper discs were placed in contact with gel specimens of same diameter under constant low pressure (0.40 psi. (2.8 Mpa)) at 37° C. […] Quantification of active agent transferred to the filter paper discs was determined by UV, MS, GC and or HPLC analysis after extraction of active agent from the filter paper. Exudation rates was expressed as μg/unit time per unit surface area. […] Exposure Conditions: 37-40 deg. […] Pressure calculated at ˜0.407 psi. […]
Measured Total Active Agent Exuded from Gel accompanies every entry in the list below.
Please give a number only; it is taken to be in µg.

{"molecule": "COC(=O)c1ccccc1O [Methyl Salicylate, reference compound]", "result_unit": "µg", "observed_value": 4259}
{"molecule": "O=c1c(O)c(-c2ccc(O)c(O)c2)oc2cc(O)cc(O)c12", "result_unit": "µg", "observed_value": 27}
{"molecule": "O=C(O)c1ccccc1O [Salicylic Acid, reference compound]", "result_unit": "µg", "observed_value": 2164}

Pending molecule:
IN: Answer with the recorded Total Active Agent Exuded from Gel for the molecule listed here: CCCCCCCCCCCCCCCC(=O)OC/C=C(C)/C=C/C=C(C)/C=C/C1=C(C)CCCC1(C)C [Vit. A Palmitate, reference compound]
OUT: 2443
